Hello, the source for this data is paper PMC7311396, in case you need it.

Molecular target: anti-HA mAb clone 12ca5
Test: Competition fluorescence polarization of HA epitope and analogues
Settings: from competition FP; 100 nM 12ca5, 28 nM FITC tracer
Description: Competition fluorescence polarization of HA epitope and analogues: Solutions of unlabeled peptides (~1 mg/mL each; Supplementary Table 1) in 1x PBS was prepared in the presence of 100 nM 12ca5, 1 mg/mL BSA, 0.02% Tween 20 (120 μL). […] (RT), and read after 1 h on a Tecan Infinite M1000 plate reader (470 nm excitation; 517 nm detection; 5 nm bandwidth). The concentration of fluorescent […] was determined based on absorbance at 490 nm, using ε = 76,900 M-1cm-1. […]
Non-standard residues stand in square brackets, D forms with d. Residues, ends and D or L forms follow the SMILES beside them.
measurement_label: pKd
When answering, recall that pKd equals minus log10 of the concentration in mol/L, and write that number alone.

I'd like to know its pKd. The compound in question is NC(=O)[C@@H](Cc1c[nH]cn1)NC(=O)[C@H]1CCCN1C(=O)[C@@H](CCC(=O)O)NC(=O)[C@@H](CC(=O)O)NC(=O)[C@@H](Cc1ccccc1)NC(=O)[C@@H](CCC(=O)O)NC(=O)[C@@H](Cc1ccc(O)cc1)NC(=O)[C@H]1CCCN1C(=O)[C@H](N)Cc1ccc(O)cc1 [ypyefdeph, reference compound] (H-[dY][dP][dY][dE][dF][dD][dE][dP][dH]-NH2)
4.74

What value of pKd has been reported for the following compound? C[C@H](NC(=O)[C@H](Cc1ccc(O)cc1)NC(=O)[C@H](CC(=O)O)NC(=O)[C@H](CCC(=O)O)NC(=O)[C@H](Cc1ccc(O)cc1)NC(=O)[C@H](CC(=O)O)NC(=O)[C@@H](N)Cc1ccccc1)C(=O)N[C@@H](CCC(=O)O)C(=O)N[C@@H](Cc1c[nH]c2ccccc12)C(=O)N[C@@H](CCCCN)C(N)=O [FDYEDYAEWK] (H-FDYEDYAEWK-NH2)
7.60

Given CC(C)[C@H](NC(=O)[C@H](CC(=O)O)NC(=O)[C@H](Cc1ccc(O)cc1)NC(=O)[C@@H]1CCCN1C(=O)[C@@H](N)Cc1ccc(O)cc1)C(=O)N1CCC[C@H]1C(=O)N[C@@H](CC(=O)O)C(=O)N[C@@H](Cc1ccc(O)cc1)C(=O)NCC(N)=O [YPYDVPDYG] (H-YPYDVPDYG-NH2; N-terminus assumed) , state its recorded pKd.
6.77

Give its pKd value. Item: NCC(=O)N[C@H](Cc1ccc(O)cc1)C(=O)N1CCC[C@@H]1C(=O)N[C@H](Cc1ccc(O)cc1)C(=O)N[C@H](CCC(=O)O)C(=O)N[C@H](Cc1ccc(O)cc1)C(=O)N[C@H](CC(=O)O)C(=O)N[C@H](Cc1c[nH]c2ccccc12)C(=O)N[C@H](CCC(=O)O)C(N)=O [Gypyeydwe, reference compound] (H-G[dY][dP][dY][dE][dY][dD][dW][dE]-NH2)
5.52
